compounds and their reported CC50
assay: Cytotoxicity against human PH5CH cells assessed as decrease in cell viability after 72 hrs by MTT assay; type: toxicity, cell-based
readout_name: CC50 (µM)

>>> obs_value("O=C(O)CCc1sc(Nc2ncccn2)nc1-c1ccccn1")
17.7
>>> obs_value("CCOC(=O)c1sc(Nc2ncccn2)nc1-c1ccncn1")
40
>>> obs_value("CCOC(=O)c1sc(Nc2ncccn2)nc1-c1cnccn1")
50
>>> obs_value("c1ccc(-c2csc(NCc3ncccn3)n2)nc1")
49.8
>>> obs_value("CCOC(=O)Cc1sc(Nc2ncccn2)nc1-c1ccccn1")
50
>>> obs_value("CCOC(=O)c1sc(Nc2ncccn2)nc1-c1cc(C(F)(F)F)ccn1")
9.34
>>> obs_value("CC(C)OC(=O)c1sc(Nc2ncccn2)nc1-c1ccncn1")
50
>>> obs_value("CCOCc1sc(Nc2ncccn2)nc1-c1ccccn1")
39
>>> obs_value("CC(C)OC(=O)OCN(c1ncccn1)c1nc(-c2cnccn2)c(C(=O)OC(C)C)s1")
50
>>> obs_value("CCOC(=O)c1sc(Nc2ncccn2)nc1-c1ncccc1C")
50
>>> obs_value("COCCOCN(c1ncccn1)c1nc(-c2cnccn2)c(C(=O)OC(C)C)s1")
50
>>> obs_value("CC(C)OC(=O)c1sc(Nc2ncccn2)nc1-c1ncccn1")
50

Measured values drawn from ChEMBL document CHEMBL3867464 for this set.
